# Target Under Test: D3 (Homo sapiens)
# Sequence (P35462 whole entry): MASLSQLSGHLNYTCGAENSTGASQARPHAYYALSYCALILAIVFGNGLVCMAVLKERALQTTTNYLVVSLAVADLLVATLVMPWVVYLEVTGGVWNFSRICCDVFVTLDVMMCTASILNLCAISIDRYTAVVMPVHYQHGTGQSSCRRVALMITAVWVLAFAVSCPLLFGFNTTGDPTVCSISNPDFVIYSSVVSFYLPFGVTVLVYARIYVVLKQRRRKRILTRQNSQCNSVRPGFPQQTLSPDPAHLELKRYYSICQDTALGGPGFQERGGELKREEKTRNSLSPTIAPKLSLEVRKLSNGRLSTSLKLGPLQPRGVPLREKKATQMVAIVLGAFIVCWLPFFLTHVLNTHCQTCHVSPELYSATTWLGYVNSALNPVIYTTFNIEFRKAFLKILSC
# Assay: functional pKi (fpKi) at D3, comparison of separated enantiomers
# Type: biochemical
# Assay Context: difference in fpKi between the two separated enantiomers of the same example
fpKi (D3) higher than the other enantiomer values, listed per item
Value Kind: fpKi (D3) higher than the other enantiomer

Compound | Target Under Test | Recorded Measurement
Cc1ncoc1-c1nnc(SCCCN2C[C@]3(C)C[C@@]3(c3cccc(Cl)c3)C2)n1C (single isomer, unassigned) [Example 22 Enantiomer 1] | D3 (Homo sapiens) | > 1 log-unit
Cc1ncoc1-c1nnc(SCCCN2C[C@]3(C)C[C@@]3(c3ccc(C(F)(F)F)c(F)c3)C2)n1C (single isomer, unassigned) [Example 61 Enantiomer 1] | D3 (Homo sapiens) | > 2 log-unit
Cc1ncoc1-c1nnc(SCCCN2C[C@@H]3C[C@]3(c3cccc(C(F)(F)F)c3F)C2)n1C (single isomer, unassigned; enantiomer 2) [Example 111 Enantiomer 2] | D3 (Homo sapiens) | > 1 log-unit
Cc1nc2cc([C@]34C[C@H]3CN(CCCSc3nnc(-c5ocnc5C)n3C)C4)ccc2s1 (single isomer, unassigned) [Example 72 Enantiomer 1] | D3 (Homo sapiens) | > 1 log-unit
